These entries and their values trace back to ChEMBL document CHEMBL1130923.

- Test system: Vitamin D3 receptor (Bos taurus) (UniProt Q28037)
- Sequence (Q28037 whole entry): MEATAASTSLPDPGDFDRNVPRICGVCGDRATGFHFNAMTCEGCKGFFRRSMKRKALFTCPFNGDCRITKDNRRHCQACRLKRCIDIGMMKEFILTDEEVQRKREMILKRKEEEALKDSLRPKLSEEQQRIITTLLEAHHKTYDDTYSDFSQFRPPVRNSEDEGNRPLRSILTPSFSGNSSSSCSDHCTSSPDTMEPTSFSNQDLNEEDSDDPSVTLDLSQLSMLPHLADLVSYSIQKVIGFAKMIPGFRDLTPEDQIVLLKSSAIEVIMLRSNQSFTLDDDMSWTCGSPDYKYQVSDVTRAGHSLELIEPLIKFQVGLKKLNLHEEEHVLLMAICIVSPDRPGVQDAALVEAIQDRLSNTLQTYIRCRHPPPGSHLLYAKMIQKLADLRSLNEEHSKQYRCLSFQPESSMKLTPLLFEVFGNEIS
- Protocol summary: Affinity for bovine thymus VDR vitamin D receptor
Assay readout: Activity
Number only, please.

Some compounds with known Activity results, for comparison:
C=C1/C(=C\C=C2/CCC[C@]3(C)[C@@H]([C@H](C)CCCC(C)(C)O)CC[C@@H]23)C[C@@H](O)[C@@H](C)[C@@H]1O 160
C=C1/C(=C\C=C2/CCC[C@]3(C)[C@@H]([C@H](C)CCCC(C)(C)O)CC[C@@H]23)C[C@H](O)[C@@H](C)[C@H]1O 7

Now consider a different compound.
-- ask Which Activity reading was recorded for the compound `C=C1/C(=C\C=C2/CCC[C@]3(C)[C@@H]([C@H](C)CCCC(C)(C)O)CC[C@@H]23)C[C@@H](O)[C@H](C)[C@@H]1O` ?
-- reply 1200

* * *

This listing pairs molecules with measured Activity.
- Test system: Vitamin D3 receptor (Bos taurus)
- Protocol summary: Affinity for bovine thymus VDR vitamin D receptor

Some molecules with known Activity results, for comparison:
C=C1/C(=C\C=C2/CCC[C@]3(C)[C@@H]([C@H](C)CCCC(C)(C)O)CC[C@@H]23)C[C@H](O)[C@H](C)[C@H]1O < 0.1
C=C1/C(=C\C=C2/CCC[C@]3(C)[C@@H]([C@H](C)CCCC(C)(C)O)CC[C@@H]23)C[C@@H](O)[C@H](C)[C@H]1O < 0.1

-- ask Vitamin D3 receptor (Bos taurus) / Activity / `C=C1/C(=C\C=C2/CCC[C@]3(C)[C@@H]([C@H](C)CCCC(C)(C)O)CC[C@@H]23)C[C@@H](O)[C@@H](C)[C@H]1O` : value?
-- reply < 0.1
